System under test: human NAMPT (Homo sapiens (Human), UniProt P43490)
Sequence (P43490 whole entry): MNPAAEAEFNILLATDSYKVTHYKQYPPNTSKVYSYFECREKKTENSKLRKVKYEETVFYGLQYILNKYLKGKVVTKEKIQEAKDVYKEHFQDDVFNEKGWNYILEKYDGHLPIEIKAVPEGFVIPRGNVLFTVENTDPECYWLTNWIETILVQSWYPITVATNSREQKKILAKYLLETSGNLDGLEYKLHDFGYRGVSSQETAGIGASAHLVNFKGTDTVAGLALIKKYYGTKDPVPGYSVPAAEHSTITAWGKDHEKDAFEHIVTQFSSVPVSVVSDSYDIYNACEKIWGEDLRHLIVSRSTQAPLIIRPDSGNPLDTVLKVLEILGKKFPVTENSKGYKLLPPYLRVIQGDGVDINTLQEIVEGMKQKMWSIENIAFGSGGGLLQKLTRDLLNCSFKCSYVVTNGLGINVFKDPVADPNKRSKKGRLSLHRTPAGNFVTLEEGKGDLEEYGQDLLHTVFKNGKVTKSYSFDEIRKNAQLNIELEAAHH
Measurement notes: NMN fluorescence biochemical assay (human recombinant NAMPT enzyme assay)
pEC50: −log10 of the molar value.
// label = y if pEC50 is not less than 5, otherwise n

Take a look at these entries with their results.
[[record]]
compound = "COC1CCN(C(=O)Cc2ccc(NC(=O)OCc3ccc(Cl)cc3)cc2)CC1"
answer_label = "n"

[[record]]
compound = "CC(=O)N1CC2CCC(C1)C2Cc1ccc(NC(=O)OCc2cnco2)cc1 (stereo not shown)"
answer_label = "y"

[[record]]
compound = "O=C(Nc1ccc([C@@H]2CCCN(C3COC3)C2)cc1)OCc1cnco1"
answer_label = "n"

[[record]]
compound = "O=C(Nc1ccc(CNC(=O)N2CCC(F)(F)CC2)cc1)OCc1ccc(Cl)cc1"
answer_label = "n"

[[record]]
compound = "COCCn1nccc1C(=O)N[C@@H](C)c1ccc(NC(=O)OCc2ccc(Cl)cc2)cc1"
answer_label = "y"


Now for a further compound.
Quick check: does O=C(Nc1ccc(CC2CC3CCC(C2)N3C(=O)N2CCOCC2)cc1)OCc1cnco1 (stereo not shown) have pEC50 greater than or equal to 5? y

* * *

Tested on: P-gp (MDR1)
Measurement notes: MDR1-MDCK bidirectional permeability assay
Study conditions: dog, MDCK-MDR1, pH 7.4, Efflux ratio
Reported efflux ratio at 120 min, 1 μM by item:
Give the figure only, with no unit attached.

Examples from the recorded data:
[[record]]
chemical_structure = "CC(C)S(=O)(=O)N1CCC(Cc2ccc(NC(=O)OCc3cnco3)cc2)CC1"
observed_measurement = 2.19

[[record]]
chemical_structure = "Cc1ccc(C(=O)NCc2ccc(NC(=O)OCc3ccc(Cl)cc3)cc2)cn1"
observed_measurement = 3.74


Next, consider the following compound.
So what's the measured efflux ratio at 120 min, 1 μM for this one? O=C(Nc1ccc(CC2CCN(CC(F)F)CC2)cc1)OCc1cnco1 1.11

* * *

System under test: human NAMPT (Homo sapiens (Human))
Measurement notes: NMN fluorescence biochemical assay (human recombinant NAMPT enzyme assay)
Reported property: AC1.4 Human (µM)
Hi! Could you send only the number? It should be in µM, unit omitted.

[[record]]
compound = "O=C(Nc1ccc(CC2CCN(CC(F)F)CC2)cc1)OCc1cnco1"
result_units = "µM"
observed_measurement = 0.56

[[record]]
compound = "CS(=O)(=O)N1CC2CC(C1)C2Cc1ccc(NC(=O)OCc2cnco2)cc1 (stereo not shown)"
result_units = "µM"
observed_measurement = 0.06

[[record]]
compound = "O=C(Nc1ccc(CN2CCC[C@@H]2c2cccnc2)cc1)OCc1cnco1"
result_units = "µM"
observed_measurement = 0.07


Would you kindly look at the next entry?
Field request: AC1.4 Human | item: O=C(Nc1ccc(CNC(=O)c2cnco2)cc1)OCc1ccc(Cl)cc1 1.62

* * *

System under test: human NAMPT (Homo sapiens (Human), UniProt P43490)
Measurement notes: NMN fluorescence biochemical assay (human recombinant NAMPT enzyme assay)
Quick reference: AC1.4 Human of the listed items.
Reply numerically in µM, unit not repeated.

See these solved cases before continuing.
[[record]]
molecule = "C[C@H](NC(=O)C1CC(F)(F)C1)c1ccc(NC(=O)OCc2cnco2)cc1 [Compound 75]"
observed_measurement = 0.64

[[record]]
molecule = "CCc1ncoc1C(=O)N[C@@H](C)c1ccc(NC(=O)OCc2ccc(Cl)cc2)cc1 [Compound 260]"
observed_measurement = 2.77

[[record]]
molecule = "CN1CC(=O)NC[C@@H]1c1ccc(NC(=O)OCc2ccc(F)cc2)cc1 [Compound 278]"
observed_measurement = 3.40


AC1.4 Human of CC(=O)N1CCC2(CC(Cc3ccc(NC(=O)OCc4cnco4)cc3F)C2)C1 (centres unmarked) [Compound 374] on human NAMPT (Homo sapiens (Human), UniProt P43490)? 0.08

Moving on to C[C@H]1CCN(C(=O)Cc2ccc(NC(=O)OCc3ccc(Cl)cc3)cc2)C1 [Compound 244] 2.39

* * *

System under test: human NAMPT (Homo sapiens (Human), UniProt P43490)
Measurement notes: NMN fluorescence biochemical assay (human recombinant NAMPT enzyme assay)
Reported property: pEC50
Interpret pEC50 as the negative base-10 log of the concentration measured in mol/L.

[[record]]
compound = "O=C(Nc1ccc(COC2CCN(C3COC3)CC2)cc1)OCc1ccc(Cl)cc1"
reported_property = "pEC50"
observed_measurement = 4.68

[[record]]
compound = "C[C@H](NC(=O)N1CCOCC1)c1ccc(NC(=O)OCc2ccc(Cl)cc2)cc1"
reported_property = "pEC50"
observed_measurement = 4.92

[[record]]
compound = "COc1ccc(COC(=O)Nc2ccc(CC3CCN(C4COC4)CC3)cc2)cc1"
reported_property = "pEC50"
observed_measurement = 4.67

[[record]]
compound = "CC(=O)N1C2CCC1CC(Cc1ccc(NC(=O)OCc3cnco3)cc1)C2 (stereo not drawn)"
reported_property = "pEC50"
observed_measurement = 5.38

[[record]]
compound = "Cc1ccc(Cc2ccc(NC(=O)OCc3cn[nH]c3)cc2)cn1"
reported_property = "pEC50"
observed_measurement = 4.43

[[record]]
compound = "CN1CCN(Cc2ccc(NC(=O)OCc3ccc(Cl)cc3)cc2)CC1=O"
reported_property = "pEC50"
observed_measurement = 4.72

[[record]]
compound = "CC(C)C(=O)N1CCC2(CC(c3ccc(NC(=O)OCc4cnco4)cc3F)C2)C1 (single isomer, unassigned) [Compound 362]"
reported_property = "pEC50"
observed_measurement = 5.34

[[record]]
compound = "CCS(=O)(=O)N1CCC2(CC(Cc3ccc(NC(=O)OCc4cnco4)cc3F)C2)C1 (stereo not drawn)"
reported_property = "pEC50"
observed_measurement = 5.36


Proceed to the following item.
Record C[C@H](NC(=O)c1cnco1)c1ccc(NC(=O)OCc2ccc(Cl)cc2)cc1 : what is its pEC50 with human NAMPT (Homo sapiens (Human), UniProt P43490)? 5.21

* * *

Measured EC50, listed per entry.
System under test: human NAMPT (Homo sapiens (Human))
Measurement notes: NMN fluorescence biochemical assay (human recombinant NAMPT enzyme assay)
Returns: string containing the number followed by the unit.

Recorded EC50, per entry:
[[record]]
compound = "COC(=O)N1CCN(C(=O)Cc2ccc(NC(=O)OCc3ccc(Cl)cc3)cc2)CC1"
reported_property = "EC50"
observed_measurement = "9.45 µM"

[[record]]
compound = "Cc1ncoc1C(=O)NCc1ccc(NC(=O)OCc2ccc(Cl)cc2)cc1"
reported_property = "EC50"
observed_measurement = "21.6 µM"

[[record]]
compound = "Cc1nn(C)c(C(=O)N(C)Cc2ccc(NC(=O)OCc3ccc(Cl)cc3)cc2)c1F"
reported_property = "EC50"
observed_measurement = "6.85 µM"

[[record]]
compound = "Cc1nnc(Cc2ccc(NC(=O)OCc3ccc(Cl)cc3)cc2)o1"
reported_property = "EC50"
observed_measurement = "39.3 µM"

[[record]]
compound = "CC(=O)N1CCC(Cc2ccc(NC(=O)OCc3cnco3)cc2F)CC1"
reported_property = "EC50"
observed_measurement = "7.79 µM"


Given the compound O=C(Nc1ccc(Cc2ccns2)cc1)OCc1ccc(Cl)cc1 , what is its reported EC50? 44.4 µM

Now this one: Cc1cnc(C(=O)N[C@@H](C)c2ccc(NC(=O)OCc3ccc(Cl)cc3)cc2)o1 36.5 µM

Same read-out for CN1CC[C@H](NCc2ccc(NC(=O)OCc3ccc(Cl)cc3)cc2)C1=O ? 21.4 µM

Could you do the same for O=C(Nc1ccc(CC(=O)N2CCN(CC(F)F)CC2)cc1)OCc1ccc(Cl)cc1 , please? 19.1 µM

Similarly, O=C(Nc1ccc(CNC(=O)c2cnccn2)cc1)OCc1ccc(Cl)cc1 ? 6.14 µM

Again, but for C[C@H](NC(=O)c1cncc(F)c1)c1ccc(NC(=O)OCc2ccc(Cl)cc2)cc1 4.3 µM

Now give it for Cn1cc(COC(=O)Nc2ccc(Cc3ccncc3)cc2)cn1 too. 4.96 µM

Moving on to the next compound: Cn1ccc(CC(=O)NCc2ccc(NC(=O)OCc3ccc(Cl)cc3)cc2)n1 28 µM

Please do the same for O=C(Nc1ccc(Cc2ccncc2)cc1)OCc1ccns1 as well. 20.6 µM

# repeat for COc1ccc(COC(=O)Nc2ccc([C@H](C)C(=O)N3CCC[C@H]3CO)cc2)cc1 55.6 µM

Queued: O=C(Nc1ccc(C2CCS(=O)(=O)CC2)cc1)OCc1ccc(Cl)cc1 5.89 µM

Further, for O=C(Nc1ccc(Cc2cnccn2)cc1)OCc1ccc(Cl)cc1 ? 19.4 µM

Field entry: O=C(Nc1ccc(CC2CC3CCC(C2)N3S(=O)(=O)C2CC2)cc1)OCc1cnco1 (stereo not shown) 3.2 µM

Likewise for O=C(Nc1ccc(CNC(=O)N2CCCCC2)cc1)OCc1ccc(Cl)cc1 ? 14.2 µM

Now consider O=C(Nc1ccc(CNC(=O)N2CCOCC2)cc1)OCc1ccc(Cl)cc1 and answer again. 47.2 µM

Entry CN(Cc1ccc(NC(=O)OCc2ccc(Cl)cc2)cc1)C(=O)N1CCC1 please 5.53 µM

Same again, this time with CN(C)S(=O)(=O)N1CC2(CC(c3ccc(NC(=O)OCc4cnco4)cc3F)C2)C1 2.76 µM

Also need CC1(C)CCN(Cc2ccc(NC(=O)OCc3ccc(Cl)cc3)cc2)C1=O , thanks. 5.01 µM

Proceed to CN(C)C(=O)N1CCC(Cc2ccc(NC(=O)OCc3cnco3)cc2)C2CC21 (stereo not shown) 16.1 µM

Also need O=C(Cc1ccc(NC(=O)OCc2ccc(Cl)cc2)cc1)NC1CCOCC1 , thanks. 8.69 µM
